assay: qHTS assay to test for compound auto fluorescence at 590 nm (red) in HepG2 cells (AID 720674); conditions: HepG2 autofluorescence, red 540/590 nm, 1 h; series mostly up to 91.3 µM
Activity calls are given as the source filed them. Calls come from the whole dose curve; as a rule, active = well fitted curve in the direction sought with a large enough effect in the repeat runs; inconclusive = weak or mixed curves; inactive = flat fitted curve, though single readings scatter.
reported-property: fluorescence, relative to Rose Bengal

Check out these entries, answers already filled in.
> print(dat)
                                 molecule                      reported.property  observed.measurement
1                          C=CC(=O)OCCCCO  fluorescence, relative to Rose Bengal              inactive
2                               C=CC(C)=O  fluorescence, relative to Rose Bengal              inactive
3           COP(=S)(OC)Oc1cc(Cl)c(I)cc1Cl  fluorescence, relative to Rose Bengal              inactive
4  O=C1CN=C(c2ccccc2)c2cc(Cl)ccc2N1CC1CC1  fluorescence, relative to Rose Bengal              inactive
5                               CCCCCCC#N  fluorescence, relative to Rose Bengal              inactive

Below are 7 molecules. Give each one its fluorescence, relative to Rose Bengal.
1. COC1=CC(=O)O[C@@H](CCc2ccccc2)C1
2. CCOP(=S)(OCC)SCn1nnc2ccccc2c1=O
3. C(=NC1CCCCC1)=NC1CCCCC1
4. C=CCC1([C@H](C)CCC)C(=O)NC(=O)NC1=O
5. COC(=O)C(Br)CBr (stereo unspecified)
6. Brc1ccc(Oc2ccccc2)cc1
7. O=C(CBr)c1ccccc1

Resp:
["inactive", "inactive", "inactive", "inactive", "inactive", "inactive", "inactive"]

====

test: Caspase-3/7 induction in CHO-K1 cells by small molecules, qHTS cell viability counter screen (AID 1346979); details: CellTiter-Fluor fluorescence, 17 h; series mostly up to 92.4 µM; note: nearly all actives have a fitted effect of over 35% in size
Records with an inconclusive call do not appear. Active and inactive are the calls of the source. Calls come from the whole dose curve; as a rule, active = well fitted cell-killing curve with a large enough effect in the repeat runs; inconclusive = weak or mixed curves, or effect the other way; inactive = no such curve, though single readings can be large or run the other way.
Pick one and only one: Yes = active, No = inactive

> print(dat)
            molecule  assigned.class
1  NC(=O)C(Cl)(Cl)Cl              No

Req: Hi, do you know how CC(=O)NC1CCSC1=O (stereo not given) came out in this test?
Resp: No

Req: Assay outcome for `O=Cc1ccc2c(c1)OCO2` : what was it?
Resp: No

Req: Any idea what this test logged for `CCBr` ?
Resp: No

Req: Recorded test call requested for CC/C(=N\OC/C=C/Cl)C1=C(O)CC(C2CCOCC2)CC1=O (stereo not given)
Resp: No

Req: Identify the outcome logged in this assay for the molecule shown: `O=NN1CCCCCC1`
Resp: No

Req: How did this test come out for `COc1c(C(C)(C)C)cc([N+](=O)[O-])c(C)c1[N+](=O)[O-]` ?
Resp: No

Req: Which outcome was assigned to `IC(I)=C(I)I` in this test?
Resp: Yes

Req: Record lookup: outcome of this test for `c1ccoc1` ?
Resp: No

Req: Test call for this molecule, please: `COc1nn(C(=O)NS(=O)(=O)c2ccccc2OC(F)(F)F)c(=O)n1C`
Resp: No

Req: Give the logged outcome of this assay for the following molecule: `O=[N+]([O-])C(Br)(CO)CO`
Resp: Yes
